Recorded values, source patent US20230330234A1.

assay: Solubility in water
measure: solubility (µg/mL)
Field: numeric (µg/mL). Do not append units.

I am curious: what solubility value has been reported for Nc1ncccc1-c1nc2ccc(-c3ccccc3)nc2n1-c1ccc(C2(N)CCC2)cc1 [Miransertib] ?
60

====

experiment: physchem; details: aqueous with cosolvent or surfactant or cyclodextrin, thermodynamic from solid
compounds and their reported solubility at 18 h

Consider the worked cases shown below.
{"compound": "COc1ccc(-c2nc(N3CCOCC3)c3sc(CN(C)c4ncc(C(=O)NO)cn4)cc3n2)cn1 [Fimepinostat]", "solubility at 18 h": "> 300 µg/mL"}
{"compound": "CCN(CCCOc1ccc2c(Nc3cc(CC(=O)Nc4cccc(F)c4)n[nH]3)ncnc2c1)CCOP(=O)(O)O [Barasertib]", "solubility at 18 h": "> 300 µg/mL"}

Entry under review: C=CC(=O)N1CCC[C@@H](n2nc(-c3ccc(Oc4ccccc4)cc3)c3c(N)ncnc32)C1 [Ibrutinib] . Reported solubility at 18 h?
> 300 µg/mL

Reported solubility at 18 h, compound CC(C)Cc1ccc(C(C)C(=O)O)cc1 (stereo not shown) [Ibuprofen] : ____
< 100 µg/mL
